assayDetails: chemical genetic growth profiling, strain panel (AID 1159580);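 note: tested at 20 µM; growth read once vehicle control cultures reached saturation at 30 °C; 1 = growth at the plate median or of vehicle wells; lower values mean less growth of the strain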
statedConditions: S. cerevisiae deletion strains, growth OD, locus YNL322C, strain KRE1 (second series), hits give low values
Out of some 5,500 compounds screened, about 2,000 (36%) were called active. Not shown: some 18% with an inconclusive outcome. This is one part of the list.
Label 1 (yes) when normalized growth is strictly below 1; at or above that, label 0 (no).

{"compound": "CC(=O)OCC1=C(C(=O)O)N2C(=O)[C@@H](NC(=O)CSc3ccncc3)[C@H]2SC1", "classLabel": "0 (no)"}

Could you please tell me whether normalized growth recorded for O=C(/C=C/c1ccccc1)c1ccc(O[C@@H]2O[C@H](CO)[C@@H](O)[C@H](O)[C@H]2O)cc1O is less than 1?
1 (yes)

Could you please tell me whether normalized growth recorded for CC(=CC1CCC(C)C2CCC(C)=C12)C(=O)O (configuration not stated) is less than 1?
1 (yes)

Could you please tell me whether normalized growth recorded for NC(=NCCCCCCN=C(N)N=C(N)Nc1ccc(Cl)cc1)N=C(N)Nc1ccc(Cl)cc1 is less than 1?
1 (yes)

Could you please tell me whether normalized growth recorded for CC(C)c1cc2c(c(O)c1O)[C@@]1(C(=O)O)CCCC(C)(C)C1CC2 (some centres not stated) is less than 1?
0 (no)

Could you please tell me whether normalized growth recorded for CC12CCC(O)CC1CCc1ccccc12 (configuration not stated) is less than 1?
1 (yes)

Could you please tell me whether normalized growth recorded for C/C(=C\CO)CC[C@H](C)CCC[C@H](C)CCCC(C)C is less than 1?
0 (no)

Values were extracted from PubChem BioAssay AID1159580.
